Reference source for all entries: ChEMBL document CHEMBL1212755

- assayName: Apparent oral clearance in patient without diarrhea undergoing allogenic hematopoietic stem cell transplantation
- Assay type: ADME, organism-based
- recordedConditions: human, in vivo
parameterMeasured: CL/F (mL/min)
Numbers only; they are read as mL/min.

Recorded CL/F of CC[C@@H]([C@H](C)O)n1ncn(-c2ccc(N3CCN(c4ccc(OC[C@@H]5CO[C@@](Cn6cncn6)(c6ccc(F)cc6F)C5)cc4)CC3)cc2)c1=O [POSACONAZOLE] , please.
1120

====

- assayName: Apparent oral clearance in patient undergoing allogenic hematopoietic stem cell transplantation
- Assay type: ADME, organism-based
- recordedConditions: human, in vivo
parameterMeasured: CL/F (mL/min)
Report only the number, with the unit mL/min understood.

Item under review: `CC[C@@H]([C@H](C)O)n1ncn(-c2ccc(N3CCN(c4ccc(OC[C@@H]5CO[C@@](Cn6cncn6)(c6ccc(F)cc6F)C5)cc4)CC3)cc2)c1=O` . Reported CL/F?
1260
